- assayNotes: AUC (0 to t) in BALB/c male mouse at 1 mg/kg, iv measured upto 24 hrs by LC-MS/MS analysis
- Type: ADME, organism-based
- experimentalSetup: in vivo
reportedEndpoint: AUC(0-t) at 24 h (ng·h/mL)
Numbers only, in ng·h/mL.

q: Query: AUC(0-t) at 24 h; subject: C=CC(=O)Nc1cccc(C)c1Nc1ncc(C#Cc2cccc(C(=O)Nc3ccc(CN4CCN(C)CC4)c(C(F)(F)F)c3)c2)cn1
a: 241

* * *

- assayNotes: MRT (0 to t) in BALB/c male mouse at 10 mg/kg, po measured upto 24 hrs by LC-MS/MS analysis
- Type: ADME, organism-based
- experimentalSetup: in vivo
reportedEndpoint: MRT last at 24 h (h)
One number for each entry, in h.

q: Name the reported MRT last at 24 h value associated with the molecule C=CC(=O)Nc1cccc(C)c1Nc1ncc(C#Cc2cccc(C(=O)Nc3ccc(CN4CCN(C)CC4)c(C(F)(F)F)c3)c2)cn1
a: 2.65

* * *

- assayTarget: Fibroblast growth factor receptor 1 (Homo sapiens, UniProt P11362)
- Sequence (P11362 22-822 limits assumed): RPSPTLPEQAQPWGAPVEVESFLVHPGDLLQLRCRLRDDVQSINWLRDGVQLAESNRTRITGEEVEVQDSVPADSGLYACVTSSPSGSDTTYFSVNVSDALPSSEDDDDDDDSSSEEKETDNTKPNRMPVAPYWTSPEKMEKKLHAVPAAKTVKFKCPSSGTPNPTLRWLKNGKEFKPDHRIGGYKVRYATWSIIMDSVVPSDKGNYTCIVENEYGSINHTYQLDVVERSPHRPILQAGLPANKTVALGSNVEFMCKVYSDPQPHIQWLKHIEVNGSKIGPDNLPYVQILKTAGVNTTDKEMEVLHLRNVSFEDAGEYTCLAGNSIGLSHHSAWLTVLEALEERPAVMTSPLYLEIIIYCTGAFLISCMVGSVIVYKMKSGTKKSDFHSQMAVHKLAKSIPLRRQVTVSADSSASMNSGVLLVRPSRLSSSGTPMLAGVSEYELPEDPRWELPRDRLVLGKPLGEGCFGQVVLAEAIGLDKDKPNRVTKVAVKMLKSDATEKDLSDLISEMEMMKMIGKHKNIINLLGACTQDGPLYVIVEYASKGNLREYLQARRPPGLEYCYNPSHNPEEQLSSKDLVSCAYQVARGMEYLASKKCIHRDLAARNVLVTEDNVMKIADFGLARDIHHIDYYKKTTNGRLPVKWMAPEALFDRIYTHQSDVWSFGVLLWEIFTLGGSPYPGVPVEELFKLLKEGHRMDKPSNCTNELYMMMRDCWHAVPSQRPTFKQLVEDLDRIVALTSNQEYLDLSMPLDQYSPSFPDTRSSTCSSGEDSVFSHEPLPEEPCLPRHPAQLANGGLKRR
- experimentalSetup: dose 10.0 nM
- Description: Inhibition of FGFR1 (unknown origin) at 10 nM incubated for 15 mins in presence of ATP relative to control
reportedEndpoint: inhibition

{"smilesRecord": "Cc1ccc(C(=O)Nc2ccc(C(=O)N3CCN(C)CC3)c(C)c2)cc1C#Cc1cnc(Nc2c(C)cccc2NC(=O)/C=C/CN(C)C)nc1", "result": "0.6%"}
{"smilesRecord": "C=CC(=O)Nc1cccc(C)c1Nc1ncc(C#Cc2ccc(C)c(C(=O)Nc3ccc(CN4CCN(C)CC4)c(C(F)(F)F)c3)c2)cn1", "result": "0.3%"}
{"smilesRecord": "Cc1ccc(C(=O)Nc2ccc(C(=O)N3CCN(C)CC3)c(C(F)(F)F)c2)cc1C#Cc1cnc(Nc2c(C)cccc2NC(=O)/C=C/CN(C)C)nc1", "result": "2.2%"}

Now for the compound whose inhibition we want.
q: State the recorded inhibition for this entry: Cc1ccc(C(=O)Nc2ccc(CN3CCN(C)CC3)c(C(F)(F)F)c2)cc1C#Cc1cnc(Nc2c(C)cccc2NC(=O)CCl)nc1
a: 0.2%

* * *

- assayNotes: Oral bioavailability in BALB/c male mouse at 10 mg/kg measured upto 24 hrs by LC-MS/MS analysis
- Format: ADME, organism-based
- experimentalSetup: in vivo
reportedEndpoint: bioavailability (%)
Answers are plain numbers, in %.

q: Given the compound C=CC(=O)Nc1cccc(C)c1Nc1ncc(C#Cc2cccc(C(=O)Nc3ccc(CN4CCN(C)CC4)c(C(F)(F)F)c3)c2)cn1 , what is its reported bioavailability?
a: 17.8

* * *

- assayNotes: Volume of distribution at steady state in BALB/c male mouse at 1 mg/kg, iv measured upto 24 hrs by LC-MS/MS analysis
- Format: ADME, organism-based
- experimentalSetup: in vivo, read-out: Vdss
reportedEndpoint: Vd (L/kg)
Answers are plain numbers, in L/kg.

q: So what does the record say about Vd for C=CC(=O)Nc1cccc(C)c1Nc1ncc(C#Cc2cccc(C(=O)Nc3ccc(CN4CCN(C)CC4)c(C(F)(F)F)c3)c2)cn1 ?
a: 3.52

* * *

- assayNotes: Cmax in BALB/c male mouse at 10 mg/kg, po measured upto 24 hrs by LC-MS/MS analysis
- Format: ADME, organism-based
- experimentalSetup: in vivo
reportedEndpoint: Cmax (ng/mL)
Answers are plain numbers, in ng/mL.

q: Recorded Cmax for C=CC(=O)Nc1cccc(C)c1Nc1ncc(C#Cc2cccc(C(=O)Nc3ccc(CN4CCN(C)CC4)c(C(F)(F)F)c3)c2)cn1 , please?
a: 91.3
